From: PubChem BioAssay (NCI)

System: HOP-62 NSCLC
Protocol Description: NCI tumour cell line growth inhibition, 48 h
Listed next: entries and their corresponding TGI.
Write it as a number; the unit µM goes unstated.

See these solved cases before continuing.
Compound | Target Of Assay | Reported Endpoint | Units Of Measure | Observed Result
CCCCCCCCCCCCCCCCCC1=NC(C)(C)CN1C(C)(C)CO | HOP-62 NSCLC | TGI | µM | 3.19
CC(C)(C)OC(=O)NCC(c1c[nH]c2cc(Br)ccc12)c1c[nH]c2cc(Br)ccc12 | HOP-62 NSCLC | TGI | µM | 33.2
C/C=C(\C)C(=O)OC1C2C(C)=CC(=O)C(O)C2(C)C2C3(O)OCC24C1OC(=O)C(OC(C)=O)C4C(C)C3O (centres undefined) | HOP-62 NSCLC | TGI | µM | 0.0415

Q: Given the compound Cc1ccc(N2C=Nn3c(nc4sc5c(c4c3=O)CCCC5)C2)cc1 , what is its reported TGI?
Ans: 69.2
